Test system: Vero E6
experiment-description: cell viability relative to DMSO; higher = less toxic
measurement-parameters: 72 h; 1 nM
outcome-measure: cell viability

>>> assay_result("N#Cc1nn(-c2c(Cl)cc(C(F)(F)F)cc2Cl)c(N)c1[S+]([O-])C(F)(F)F (centres undefined) [fipronil]")
"106%"
>>> assay_result("Cc1cc(Nc2ncnc3ccc(NC4=NC(C)(C)CO4)cc23)ccc1Oc1ccn2ncnc2c1 [tucatinib]")
"99.4%"
>>> assay_result("CCNC(=O)c1noc(-c2cc(C(C)C)c(O)cc2O)c1-c1ccc(CN2CCOCC2)cc1 [NVP-AUY922]")
"104%"
>>> assay_result("CC(=O)NCCCS(=O)(=O)O [acamprosate]")
"102%"
>>> assay_result("O=P(O)(O)C(O)(Cc1cnc2ccccn12)P(=O)(O)O [minodronic-acid]")
"106%"
>>> assay_result("C[C@@H](C(=O)O)c1ccc(-c2ccccc2)c(F)c1 (racemic) [flurbiprofen-(+/-)]")
"100%"
>>> assay_result("C[C@]12CC[C@H]3[C@@H](CC[C@@]45O[C@@H]4C(O)=C(C#N)C[C@]35C)[C@@H]1CC[C@@H]2O [trilostane]")
"91.3%"
>>> assay_result("CC[C@H](CO)Nc1nc(NCc2ccc(-c3ccccn3)cc2)c2ncn(C(C)C)c2n1 [CR8-(R)]")
"90.2%"
>>> assay_result("C[C@@]1(C(=O)O)NCCc2cc(O)c(O)cc21 [salsolinol-1-carboxylic-acid]")
"100%"

----------
Tested on: Vero E6
experiment-description: drug sensitivity score (DSS) for viability; higher = more toxic; extreme values may be limits of the assay
measurement-parameters: 72 h
outcome-measure: drug sensitivity score

>>> assay_result("CC1CCC(NC(=O)N(CCCl)N=O)CC1 (configuration not stated)")
0
>>> assay_result("C[C@@H]1CN(Cc2ccc(F)cc2)[C@@H](C)CN1C(=O)c1cc2c(C(=O)C(=O)N(C)C)cn(C)c2cc1Cl")
2.1
>>> assay_result("CC(=O)NCCCS(=O)(=O)O [acamprosate]")
0
>>> assay_result("Cn1c(=O)c2c(ncn2C)n(C)c1=O")
0
>>> assay_result("CON")
0
>>> assay_result("NC[C@H]1CC[C@H](C(=O)O)CC1")
0
>>> assay_result("O=C(NCCN1CCCCC1)c1ccc(I)cc1 [N-[2-(piperidinylamino)ethyl]-4-iodobenzamide]")
0
>>> assay_result("CCN(CC)C(=S)S [ditiocarb-sodium-trihydrate]")
0
>>> assay_result("NCCc1cc[nH]n1")
0
>>> assay_result("CC(C)(c1ccc(O)cc1)c1ccc(O)cc1")
0.1
>>> assay_result("CC(O)(C(=O)Nc1ccc(S(=O)(=O)c2ccccc2)cc1)C(F)(F)F (configuration not stated)")
0
>>> assay_result("NCCc1ccccn1")
0
>>> assay_result("CC(=O)Oc1ccc(C(c2ccc(OC(C)=O)cc2)c2ccccn2)cc1")
1
>>> assay_result("Cn1cc(CCn2cnc(-c3cnn(C)c3)c2-c2ccc(C#N)cc2)cn1")
0
>>> assay_result("CCCCn1c(=O)c2[nH]c(C34CC5CC(CC3C5)C4)nc2n(CCCO)c1=O")
0
>>> assay_result("O=C(O)c1cc(O)c2c(Cl)cc(Cl)cc2n1")
0
>>> assay_result("O=C(CCCN1CCC2(CC1)C(=O)NCN2c1ccccc1)c1ccc(F)cc1")
0
>>> assay_result("CC(C)(C)OC(=O)N[C@H]1CCCCC/C=C\\[C@@H]2C[C@@]2(C(=O)NS(=O)(=O)C2CC2)NC(=O)[C@@H]2C[C@@H](OC(=O)N3Cc4cccc(F)c4C3)CN2C1=O")
0
>>> assay_result("Nc1nc(/C(=C/CC(=O)O)C(=O)N[C@@H]2C(=O)N3C(C(=O)O)=CCS[C@H]23)cs1")
0
>>> assay_result("N#Cc1nn(-c2c(Cl)cc(C(F)(F)F)cc2Cl)c(N)c1[S+]([O-])C(F)(F)F (configuration not stated)")
0
>>> assay_result("Cc1ccccc1C(C(=O)NC1CCCCC1)N(C(=O)Cn1ccnc1C)c1cccc(F)c1 (configuration not stated)")
0
>>> assay_result("COC(=O)[C@@H](N)CS")
0
>>> assay_result("N[C@H](C(=O)O)c1ccc(O)cc1")
0
>>> assay_result("C[C@]12C=CC(=O)C=C1CC[C@@H]1[C@@H]2CC[C@]2(C)OC(=O)CC[C@@H]12")
0
>>> assay_result("NC(=O)c1ncn([C@@H]2O[C@H](CO)[C@@H](O)[C@H]2O)c1N")
0
>>> assay_result("OCc1cc(C(O)CNCCCCCCOCCCCc2ccccc2)ccc1O (configuration not stated)")
0
>>> assay_result("CO[C@@]1(NC(=O)Cc2cccs2)C(=O)N2C(C(=O)O)=C(COC(N)=O)CS[C@@H]21")
0.5

----------
Test system: HepG2
experiment-description: cell viability relative to DMSO; higher = less toxic
measurement-parameters: 72 h; 1000 nM
Reported cell viability values for a set of compounds
outcome-measure: cell viability (%)

>>> assay_result("Cc1ccccc1C(=O)c1ccc(Nc2ccc(Br)cc2N)cc1Cl")
85.6
>>> assay_result("CCN(CC)Cc1ccc(C(=O)N(CCc2ccccc2OC)[C@@H]2CCNC2)cc1")
104
>>> assay_result("CN[C@H](CNC(=O)N1CCC[C@@H]([C@@H](OCCNC(=O)OC)c2cccc(Cl)c2)C1)C[C@H]1CCCOC1")
98.6
>>> assay_result("N#CCC(=O)NN [cyacetacide]")
97.4
>>> assay_result("CS(=O)(=O)c1cc(F)cc2c3c(n(Cc4ccc(Cl)cc4)c12)[C@@H](CC(=O)O)CC3")
98.6
>>> assay_result("COc1cc2c(cc1OC)-c1c/c(=N\\c3c(C)cc(C)cc3C)n(C)c(=O)n1CC2")
92.8
>>> assay_result("CCCCCCCCCCCCCCCCCCCCCC(=O)O")
95.5
>>> assay_result("Cc1cccc(-c2[nH]c(CNc3ccccc3F)nc2-c2ccc3ncnn3c2)n1")
103
>>> assay_result("CC(C)(Oc1ccc(Cl)cc1)C(=O)N1CSCC1C(=O)O (stereo unspecified) [timofibrate]")
96.8
>>> assay_result("Cc1ccc(-c2ccc(F)cc2COc2ccc(CCC(=O)O)cc2)cc1")
117
>>> assay_result("Cn1cc(-c2ccc3nnc(Sc4ccc5ncccc5c4)n3n2)cn1")
97.2

----------
Reported cell viability values for a set of compounds
System: Caco-2
experiment-description: cell viability relative to DMSO; higher = less toxic
measurement-parameters: 72 h; 10 nM
outcome-measure: cell viability

>>> assay_result("CC(C)(C)c1cc(C(C)(C)C)c(NC(=O)c2c[nH]c3ccccc3c2=O)cc1O")
"98.8%"
>>> assay_result("COC(=O)[C@H](Cc1ccccc1)NC(=O)[C@@H](N)CC(=O)O")
"99.1%"
>>> assay_result("CC(C)[C@H](N)C(=O)OCC(CO)OCn1cnc2c(=O)nc(N)[nH]c21 (mixture of isomers)")
"107%"
>>> assay_result("CC(C)(c1ccc(O)cc1)c1ccc(O)cc1")
"111%"

----------
Test system: Caco-2
experiment-description: cell viability relative to DMSO; higher = less toxic
measurement-parameters: 72 h; 100 nM
outcome-measure: cell viability (%)

>>> assay_result("NC[C@@H](O)CC(=O)O [aminohydroxybutyric-acid]")
86.2
>>> assay_result("O=C(C[C@H]1CC(c2ccc(F)cc2F)=NO1)N1CCOCC1 (racemic) [CPSI-1306-(+/-)]")
107
>>> assay_result("CC(=O)N(CC(O)CO)c1c(I)c(C(=O)NCC(O)CO)c(I)c(C(=O)NCC(O)CO)c1I (stereo not given) [iohexol]")
101
>>> assay_result("NC(=O)c1ncn([C@@H]2O[C@H](CO)[C@@H](O)[C@H]2O)c1N")
86.4
>>> assay_result("Cc1cc2c(N3CCCC3)nc(N3CCCC3)nc2n1C")
96.9
>>> assay_result("CC(=O)OC[C@H]1O[C@@H]([S-])[C@H](OC(C)=O)[C@@H](OC(C)=O)[C@@H]1OC(C)=O.CCP(CC)CC.[Au+]")
101
>>> assay_result("Cc1ccccc1C(=O)c1ccc(Nc2ccc(Br)cc2N)cc1Cl")
92.3
>>> assay_result("Cc1cc(=O)[nH]c(=S)[nH]1")
99.3
>>> assay_result("O=C(Nc1cc(C(F)(F)F)ccc1O)Nc1cc(C(F)(F)F)ccc1O")
102
>>> assay_result("Cc1c(-c2ccccc2F)[nH]c(N)c1C#N")
105
>>> assay_result("O=C(c1cccc(Br)c1)N1CCC(N2CCCC2)CC1")
102
>>> assay_result("COc1ccc(C2CC(c3c(O)cc(C)oc3=O)=NCCS2)c(OC)c1 (stereo not given)")
99.5
>>> assay_result("CC(C)(C)OC(=O)N[C@H]1CCCCC/C=C\\[C@@H]2C[C@@]2(C(=O)NS(=O)(=O)C2CC2)NC(=O)[C@@H]2C[C@@H](OC(=O)N3Cc4cccc(F)c4C3)CN2C1=O")
98.4
>>> assay_result("COC(=O)C1=C(C)NC(C)=C(C(=O)NCCCN2CCC(c3ccccc3)(c3ccccc3)CC2)C1c1ccc([N+](=O)[O-])cc1 (stereo not given)")
92.9
>>> assay_result("CN1CCC(c2c[nH]c3ccc(O)cc23)CC1")
95.4
>>> assay_result("COc1ccc2c(c1)C(C(=O)N(Cc1ccc(N(C)C)cc1)c1ccc(C(C)C)cc1)CCC2 (stereo not given)")
105
>>> assay_result("CNC(=O)c1cc(Oc2ccc(NC(=O)Nc3ccc(Cl)c(C(F)(F)F)c3)c(F)c2)ccn1")
97
>>> assay_result("N#Cc1nn(-c2c(Cl)cc(C(F)(F)F)cc2Cl)c(N)c1[S+]([O-])C(F)(F)F (stereo not given)")
102
>>> assay_result("CN(C)[C@@H]1C(O)=C(C(N)=O)C(=O)[C@@]2(O)C(O)=C3C(=O)c4c(O)cccc4[C@@](C)(O)[C@H]3C[C@@H]12")
98.8
>>> assay_result("C[C@H]1[C@@H](O)O[C@@H]2O[C@@]3(C)CC[C@H]4[C@H](C)CC[C@@H]1[C@@]24OO3")
100
